// values below are MIC; system is E. coli
Value Type: MIC

| Compound | Assay Result |
| --- | --- |
| CC(C)c1sc(NC(=O)c2cc(NC(=O)c3ccc4c(c3)CCc3cc(C(=O)Nc5cc(C(=O)Nc6nc(C(=O)NCCCN(C)C)c(C(C)C)s6)n(C)c5)ccc3-4)cn2C)nc1C(=O)NCCCN(C)C | > 80.3 µM |
| CC(C)CCn1cc(NC(=O)c2ccc3[nH]c(C(=O)Nc4cc(C(=O)Nc5cc(C(=O)NCCCN6CCOCC6)n(C)c5)n(CCC(C)C)c4)cc3c2)cc1C(=O)Nc1cc(C(=O)NCCCN2CCOCC2)n(C)c1 | > 77.7 µM |
| CC(C)c1sc(NC(=O)c2cc(NC=O)cn2C)nc1C(=O)Nc1cc(C(=O)NCCCN(C)C)n(C)c1 | > 152 µM |
| CC(C)c1sc(NC(=O)c2cc(NC(=O)c3cc(NC=O)cn3C)cn2C)nc1C(=O)NCCCN(C)C | > 152 µM |
| CC1(C)S[C@@H]2[C@H](NC(=O)[C@H](N)c3ccc(O)cc3)C(=O)N2[C@H]1C(=O)O [Amoxicillin, reference compound] | 2 µM |
